Attribution: ChEMBL document CHEMBL1201862

Tested on: T47D
test-details: NCI tumour cell line growth inhibition, 48 h
Calls of active or inactive are those of the source. Rule as the data show it: active = GI50 up to about 1.1 µM and inactive = higher.
measurement-kind: GI50

Given the entry "COc1ccccc1NC(=O)C(=O)Cc1cnc2ccccc2n1" , report its measured GI50.
> 100 µM (inactive)

What value of GI50 has been reported for the following compound? CC(OC(=O)C(CC(=O)OC(C)(C)C)NC(=O)OC(C)(C)C)C(=O)OCc1ccccc1 (stereo not given)
> 100 µM (inactive)

Report GI50 for "CC(C)=CCc1c(OC(=O)c2c(C)cc(O)cc2O)cc(CO)c(CO)c1O" please.
6.85 µM (inactive)

Quick one: GI50 for "O=[N+]([O-])c1ccc(CN(CCCl)OCCCl)cc1" ?
74.5 µM (inactive)

// returns reported GI50 for input CCC(=O)C(c1ccccc1)c1ccccn1 (stereo not given)
> 100 µM (inactive)

Consider the compound shown here: "CC(C)=CC(=O)c1[nH]c2ccccc2c1CC(=O)NCCc1cncn1C" What is its recorded GI50?
34.6 µM (inactive)

What value of GI50 has been recorded for this entry: CC1S/C(=N\N=C2/C(=O)Nc3ccc(Br)cc32)N(C2CCCCC2)C1=O (stereo not given)
3.96 µM (inactive)

Would you mind telling me what GI50 value was observed for O=C(O)c1ccccc1NC(c1ccccc1)c1ccc2cccnc2c1O (stereo not given) ?
11.3 µM (inactive)

What value of GI50 has been recorded for this entry: "C[C@]12C=CC(=O)C=C1CC[C@@H]1[C@@H]2C(=O)C[C@@]2(C)[C@H]1CC[C@]2(O)C(=O)CO"
> 100 µM (inactive)

Consider the compound shown here: "Cc1c(C)c2c(c(N)c1C#N)C(=O)N(OS(=O)(=O)c1ccccc1)C2=O" What is its recorded GI50?
2.55 µM (inactive)

* * *

Could you please report measured GI50 for the items listed next?
Tested on: NCI-H226
test-details: NCI tumour cell line growth inhibition, 48 h
Calls of active or inactive are those of the source. Cut-off read from the data, not from the text of the source: active = GI50 up to about 1.1 µM and inactive = higher.

I am curious: what GI50 value has been reported for CSc1ncc2c(n1)C(C#N)C1Sc3ccccc3N1C2=O (stereo not given) ?
> 100 µM (inactive)

Return reported GI50; argument: COP1(=O)NCc2ncccc2O1 (stereo not given)
> 100 µM (inactive)

Query: GI50; subject: "O=C(O)c1ccc(S(=O)(=O)c2ccccc2)c([N+](=O)[O-])c1"
> 100 µM (inactive)

# input compound: CCOC(=O)c1cc2c3c(c(C(C)=O)c(O)c2[nH]1)N(CC(C)CC)CC3 (stereo not given) ; wanted: its GI50
41.5 µM (inactive)

What value of GI50 has been recorded for this entry: "Nc1nc(N)c(-c2ccccc2)c(CCC(=O)Nc2ccc(Cl)cc2)n1"
> 100 µM (inactive)

What GI50 value was documented for this compound, CCOC(=O)NC(=O)c1cn(C2OC(COC(=O)CCCCCCCCC(=O)OCC3OC(n4cc(C(=O)NC(=O)OCC)c(=O)[nH]c4=O)C4OC(C)(C)OC34)C3OC(C)(C)OC32)c(=O)[nH]c1=O (stereo not given) ?
77.4 µM (inactive)

Given the compound "COc1ccc(CCNCCCC2c3ccccc3-c3ccccc32)cc1OC" , what is its reported GI50?
15.4 µM (inactive)

Name the reported GI50 value associated with the compound "COc1ccc2c(c1)c1c3n2CCNN=C3CCC1"
> 100 µM (inactive)

Value lookup for GI50; key = "CCN(CC)CCn1nc(N)c2nc3ccccc3nc21"
> 100 µM (inactive)

# GI50 lookup, item "C[C@H](CC[C@@H](O)C(C)(C)O)[C@H]1CC[C@@]2(C)[C@@H]3CC=C4[C@@H](CC[C@H](O)C4(C)C)[C@]3(C)C(=O)C[C@]12C"
20.8 µM (inactive)

What does the data say about its GI50? Entry: O=C1OC(c2cccc(C(F)(F)F)c2)c2ccc3ccccc3c21 (stereo not given)
> 10 µM (inactive)

What value of GI50 has been reported for the following compound? "Clc1ccc(/N=C/C=C/Nc2ccc(Cl)cn2)nc1"
16.1 µM (inactive)

Can you look up the measured GI50 of "COc1ccccc1NC(=O)C(=O)Cc1cnc2ccccc2n1" for me?
> 100 µM (inactive)

Can you share its GI50? I mean this compound: COc1ccc(C(SC2C(O)C(CO)OC2n2ccc(N)nc2=O)(c2ccccc2)c2ccc(OC)cc2)cc1 (stereo not given)
14.2 µM (inactive)

Fill blank: measured GI50 of the compound "COc1cc(/C=C\c2ccccn2)cc(OC)c1OC" is ____.
> 100 µM (inactive)

Could you tell me which GI50 is on file for "CC1=C(C#N)C(=O)N(/N=C/c2ccc(Cl)cc2)C(=O)/C1=c1\o/c(=C2/C(=O)N(/N=C/c3ccc(Cl)cc3)C(=O)C(C#N)=C2C)c2nccnc12" ?
78.2 µM (inactive)

// GI50 lookup, key: "NC(=O)NNC(=O)c1nc[nH]c1[N+](=O)[O-]"
> 100 µM (inactive)

Which GI50 is listed for "NCCCCN(CCCN)Cc1ccccc1" ?
> 100 µM (inactive)

Look up GI50: CCOC(=O)C1C(=O)CC(C)(O)C(C(=O)OCC)C1c1ccc(OC)cc1 (stereo not given)
1.6 µM (inactive)

Consider the compound shown here: "O=[N+]([O-])c1ccc(/C=N/C2CCCCC2)cc1" What is its recorded GI50?
> 100 µM (inactive)

* * *

System: SK-MEL-2
test-details: NCI tumour cell line growth inhibition, 48 h
Activity calls are given as the source filed them. Rule as the data show it: active = GI50 up to about 1.1 µM and inactive = higher.
measurement-kind: GI50

Please give the measured GI50 for this compound: OCc1ccc(C2CC(c3ccco3)=NN2c2ccccc2)o1 (stereo unspecified)
> 100 µM (inactive)

Reported GI50 for ClC1(Cl)C(c2ccccc2)C1c1ccccc1 (stereo unspecified) : what is it?
13.8 µM (inactive)

Given O=P1(C(O)c2ccccc2)N(Cc2ccccc2)[C@@H]2CCCC[C@H]2N1Cc1ccccc1 (stereo partly specified) , state its recorded GI50.
27 µM (inactive)

Value lookup for GI50; key = COc1cccc(C2c3cc4c(cc3OC(N3CCCC3)C2C)OCO4)c1OC (stereo unspecified)
3.89 µM (inactive)

Given the compound "C=Cc1c(C)c(OC)cc2c1Oc1ccc(OC)c(C)c1CC2" , what is its reported GI50?
> 100 µM (inactive)

I would be grateful if you could share the reported GI50 for "Cn1c(=O)c2[nH]c(CCC(=O)O)nc2n(C)c1=O" .
> 100 µM (inactive)

* * *

Test system: NCI-H23
test-details: NCI tumour cell line growth inhibition, 48 h
Active and inactive are the calls of the source. Rule as the data show it: active = GI50 up to about 1.1 µM and inactive = higher. Peptide text beside a SMILES is read from it. * marks the point of attachment. Boc = CC(C)(C)OC(=O)*; OBn = c1ccc(CO*)cc1; Bn = c1ccc(C*)cc1
Exercise: state measured GI50 for each of the compounds provided.

Recorded GI50 of "c1cc(CNCCN2CCNCC2)ccn1" , please.
> 100 µM (inactive)

Any idea what GI50 was measured for "Cc1ccc(C)n2c1nc1ccc3ccccc3c12" ?
> 100 µM (inactive)

Quick one: GI50 for COc1cc(C2S/C(=C/c3ccccc3)C(=O)N2c2ccc(Cl)cc2)cc(OC)c1OC (centres undefined) ?
12.7 µM (inactive)

I am curious: what GI50 value has been reported for "O=C(NCCC1([N+](=O)[O-])CCN(C(=O)c2ccccc2)CC1)c1ccccc1" ?
> 100 µM (inactive)

Reported GI50 for "O=C(O)C(=Cc1ccc(-c2ccc([N+](=O)[O-])cc2)o1)C(=O)O" : what is it?
> 100 µM (inactive)

Suppose we examine the compound "Cc1ccc(C(C)C)c(OCC(=O)N/N=C/c2c[nH]c3ccc(Br)cc23)c1" ; what GI50 value has been reported?
0.451 µM (active)

Record request: GI50 value, item "C=C=C(C)C(=O)N(C(C)C)C(C)C"
> 100 µM (inactive)

Bench note: what GI50 did "C/N=c1\ss/c(=N\C(=S)N(C)C)n1C" show?
> 100 µM (inactive)

I have this compound here, "C=C1CC2(OC1=O)c1ccccc1C=Cc1ccccc12" , and I need its recorded GI50.
6.32 µM (inactive)

Request the reported GI50 associated with CC(Oc1ccc(Cl)cc1Cl)C(=O)NN1C(=O)CSC1c1ccc(Cl)cc1 (centres undefined)
79.8 µM (inactive)

Given the entry CC(C)CC(NC(=O)C(CCC(=O)OCc1ccccc1)NC(=O)OC(C)(C)C)C(=O)NC(COCc1ccccc1)C(=O)NC(Cc1ccccc1)C(=O)O (centres undefined) (Boc-E(OBn)LS(Bn)F-OH; configuration not given here) , report its measured GI50.
> 100 µM (inactive)

Item "C#CCn1c(=O)c(C#N)c(O)c2cc3ccccc3nc21" has what recorded GI50?
> 100 µM (inactive)

What GI50 value was documented for this compound, "N#CC(C#N)=C1C(=Cc2ccc(OCCCCCCCCCCSSCCCCCCCCCCOc3ccc(C=C4C(=C(C#N)C#N)c5ccccc5C4=C(C#N)C#N)cc3)cc2)C(=C(C#N)C#N)c2ccccc21" ?
17.3 µM (inactive)

Form field: reported GI50 of CC(=O)OC1OC(c2ccoc2)C[C@@]12C1CCC3O[C@]3(C)[C@]1(C)C[C@H](OC(C)=O)[C@H]2C (some centres undefined)
74.1 µM (inactive)

Return reported GI50; argument: CCCCCCCCCCCCCCCCC(C(=O)O)C(O)(CC(=O)O)C(=O)O (centres undefined)
29 µM (inactive)

# get_value(readout='GI50', item= COC(=O)C1=C(C(=O)OC)C2OC1C1C2C2(C)C(C)=C(C)C1(C)[S+]2[O-] (centres undefined) )
6.93 µM (inactive)

Requested read-out: GI50. Entry: "CN(C)CCCNC1=C(Cl)C(=O)c2c(O)ccc(O)c2C1=O"
1.65 µM (inactive)

GI50 lookup needed for "O=c1[nH]c(=O)n([C@@H]2O[C@H](CO)[C@@H](O)[C@H]2O)cc1F" , thanks.
0.229 µM (active)

Query (compound): "CCOC(=O)c1ccc(OCc2nc3cc(C(F)(F)F)ccc3nc2-c2ccccc2)cc1" ; field requested: GI50
> 100 µM (inactive)
